- condition-info: 303.15 K; 101.33 kPa; Liquid; Concentric cylinders viscometry
assay-endpoint: viscosity (mPa·s)

[
  {
    "smiles-record": "CCCCCCC",
    "viscosity (mPa·s)": 0.3773
  },
  {
    "smiles-record": "CC(C)(C)O",
    "viscosity (mPa·s)": 3.387
  },
  {
    "smiles-record": "CCCCCCCCC",
    "viscosity (mPa·s)": 0.6323
  }
]

(A) CCCCCCCC
(B) CCCCCCCCCC
I'm curious whether A or B has the smaller viscosity number. Which is it? Indicate which entry you chose by stating its label.
A
(A: 0.4918 mPa·s, B: 0.7838 mPa·s)

Reference source for all entries: the NIST ThermoML archive (doi:10.1016/j.fluid.2010.10.009)
